biological target: SIK3 (Homo sapiens, UniProt Q9Y2K2); assay: SIK3 kinase assay, IMAP fluorescence polarization; assay type: biochemical; settings: 50 or 100 μM ATP; average; read-out: SIK3-AVERAGE Ki
Sequence (Q9Y2K2 whole entry): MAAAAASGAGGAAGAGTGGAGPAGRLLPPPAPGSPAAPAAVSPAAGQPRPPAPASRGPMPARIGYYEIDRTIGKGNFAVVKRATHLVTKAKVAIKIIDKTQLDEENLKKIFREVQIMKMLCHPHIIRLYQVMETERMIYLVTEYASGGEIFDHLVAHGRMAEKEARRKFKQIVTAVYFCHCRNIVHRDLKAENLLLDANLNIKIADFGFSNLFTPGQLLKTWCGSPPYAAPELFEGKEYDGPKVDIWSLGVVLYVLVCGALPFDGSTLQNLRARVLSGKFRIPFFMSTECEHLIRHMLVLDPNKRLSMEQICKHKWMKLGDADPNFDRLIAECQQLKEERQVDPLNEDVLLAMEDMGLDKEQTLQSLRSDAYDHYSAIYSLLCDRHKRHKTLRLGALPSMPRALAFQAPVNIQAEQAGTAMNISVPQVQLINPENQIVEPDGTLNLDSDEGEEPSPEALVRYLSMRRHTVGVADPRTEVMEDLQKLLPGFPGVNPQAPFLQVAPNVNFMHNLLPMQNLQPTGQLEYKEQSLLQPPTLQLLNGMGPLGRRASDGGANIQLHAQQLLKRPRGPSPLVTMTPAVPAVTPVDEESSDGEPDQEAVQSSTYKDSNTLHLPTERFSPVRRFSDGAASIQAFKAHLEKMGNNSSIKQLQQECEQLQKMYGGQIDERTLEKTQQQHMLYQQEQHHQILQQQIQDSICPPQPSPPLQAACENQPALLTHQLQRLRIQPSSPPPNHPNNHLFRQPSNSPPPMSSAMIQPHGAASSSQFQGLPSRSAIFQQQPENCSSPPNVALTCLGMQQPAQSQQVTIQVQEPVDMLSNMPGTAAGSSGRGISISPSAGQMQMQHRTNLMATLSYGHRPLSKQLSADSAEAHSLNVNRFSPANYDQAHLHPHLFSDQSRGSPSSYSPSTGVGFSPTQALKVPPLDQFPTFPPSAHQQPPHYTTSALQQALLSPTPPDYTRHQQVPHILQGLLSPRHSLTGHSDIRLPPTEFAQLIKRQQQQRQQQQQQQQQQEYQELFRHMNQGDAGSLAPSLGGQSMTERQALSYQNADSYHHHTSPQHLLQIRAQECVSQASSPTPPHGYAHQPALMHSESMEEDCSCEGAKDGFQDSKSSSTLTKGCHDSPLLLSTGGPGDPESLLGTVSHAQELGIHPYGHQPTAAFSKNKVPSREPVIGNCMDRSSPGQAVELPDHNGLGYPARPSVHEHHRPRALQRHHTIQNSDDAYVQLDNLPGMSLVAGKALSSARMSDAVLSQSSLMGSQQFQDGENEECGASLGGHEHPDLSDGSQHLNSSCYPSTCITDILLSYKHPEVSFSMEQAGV
MEASURED_PROPERTY: Ki (nM)
Answers are plain numbers, in nM.

Use these answered entries as a reference point.
Cc1cccc(F)c1N1Cc2cnc(N)nc2N([C@H]2CCCN(C)C2)C1=O :: 6.65
Cc1cccc(F)c1N1Cc2cnc(N)nc2N([C@@H]2CCCNCC2)C1=O :: 0.845
Cc1cccc(F)c1N1Cc2cnc(N)nc2N([C@H]2CCCCNC2)C1=O :: 5.92
Cc1cccc(F)c1N1Cc2cnc(N)nc2N([C@H]2CCNC2)C1=O :: 20.8
Cc1cccc(F)c1N1Cc2cnc(N)nc2N([C@H]2CC[C@@H](N)CC2)C1=O :: 1.98
Cc1cccc(F)c1N1Cc2cnc(N(C)C)cc2N([C@H]2CCC[C@@H](N(C)C)C2)C1=O (relative stereo) :: 1370

Fill in Ki for each of the 2 compounds listed.
1. Cc1cccc(F)c1N1Cc2cnc(N)nc2N([C@H]2CCN(C)C2)C1=O
2. Cc1cccc(F)c1N1Cc2cnc(N)cc2N([C@@H]2CCCCNC2)C1=O

## Output
1: 64.5; 2: 1.36
